Values were extracted from ChEMBL document CHEMBL1201862.

Tested on: CAKI-1
Experiment: NCI tumour cell line growth inhibition, 48 h
Activity calls are given as the source filed them. Rule as the data show it: active = GI50 up to about 1.1 µM and inactive = higher.
METRIC NAME: GI50

{"columns": ["COMPOUND", "METRIC NAME", "READING"],
 "data": [
  ["c1ccc(/C(=N/Nc2ccccn2)c2ncccn2)cc1", "GI50", "0.0528 µM (active)"],
  ["CN(C)c1ccc(/C=C/C=C\\c2cc(/C=C/C=C/c3ccc(N(C)C)cc3)[s+]c3ccccc23)cc1.[O-][Cl+3]([O-])([O-])[O-]", "GI50", "10 µM (inactive)"],
  ["O=C1SC(SCc2ccccc2)=NC12CC2c1ccccc1 (stereo not given)", "GI50", "20 µM (inactive)"],
  ["O=[N+]([O-])c1ccc(CSc2c3ccccc3nc3ccccc23)cc1", "GI50", "15.4 µM (inactive)"],
  ["COC(=O)c1ccc(OCc2ccc3nc(-c4ccccc4)c(Cl)nc3c2)cc1", "GI50", "28.6 µM (inactive)"]
]}

----------
Tested on: NCI/ADR-RES
Assay: NCI tumour cell line growth inhibition, 48 h
Activity calls are given as the source filed them. No stated cut-off is given here; in the data, active = GI50 up to about 1.1 µM and inactive = higher.
Outcome codes: active, inactive

{"columns": ["MOLECULE", "LABEL"],
 "data": [
  ["Nc1nc(Cl)c(N)c(NCC2(CO)CCC2)n1", "inactive"],
  ["CCOC(=O)Oc1cc2c(ccn2C)c2c1c1ccccc1n2C(=O)OCC", "inactive"],
  ["C/C(=N\\N=C(/[SeH])N1CC2CCC(CC2)C1)c1ccccn1", "active"],
  ["NC(=O)ON=C1CCN(Cc2ccccc2)CC1", "inactive"],
  ["C[C@H]1SC(c2ccc(Cl)cc2Cl)N(NC(=O)c2ccncc2)C1=O (stereo partly specified)", "inactive"],
  ["O=C(CCN1CCCCC1)Nc1ccc2sc3ccccc3c(=O)c2n1", "inactive"]
]}

----------
Test system: COLO 205
Experiment: NCI tumour cell line growth inhibition, 48 h
Active and inactive are the calls of the source. No stated cut-off is given here; in the data, active = GI50 up to about 1.1 µM and inactive = higher.
Outcome codes: label 1 for active, label 0 for inactive

{"columns": ["COMPOUND", "LABEL"],
 "data": [
  ["CC1CCCC(CC(=O)O)(CC(=O)O)C1 (stereo not given)", "label 0"],
  ["O=S(=O)(/C=C/c1ccc(F)cc1)Cc1ccc(CS(=O)(=O)/C=C/c2ccc(F)cc2)cc1", "label 0"],
  ["NC(=O)c1c2c(cc3c(=O)c4ccccc4[nH]c13)CCCC2", "label 0"],
  ["COc1ccc2c(C(=O)c3cn(CCN4CCOCC4)c4ccccc34)cccc2c1", "label 0"],
  ["O=C(CC(=O)C1CCOC1=O)C(=O)Nc1cccc(Cl)c1 (stereo not given)", "label 0"],
  ["NCCNc1ncnc2ccc(Cl)cc12", "label 0"],
  ["Nc1ccc(-c2nc3cc(F)ccc3s2)cc1Br", "label 1"],
  ["COc1ccc(-c2cc(-c3ccc(C)cc3)n(C3OC(COC(C)=O)C(OC(C)=O)C(OC(C)=O)C3OC(C)=O)c(=S)c2C#N)cc1 (stereo not given)", "label 0"],
  ["Cc1nc(O)nc2nc3ccc(Cl)cc3c(NCCNCCO)c12", "label 0"],
  ["COC(=O)C1C(=O)N(CCc2c[nH]c3ccccc23)C[C@@H]2CCC(=O)C[C@H]12 (stereo not given in full)", "label 0"],
  ["C=C(Br)CNCC(=C)Br", "label 0"],
  ["CC(C)C/N=C(\\N)N=C(N)N", "label 0"],
  ["CC1=NN(c2nc(N)nc(CCl)n2)C(C)(C)C1", "label 0"],
  ["C[C@H]1SC(c2ccc(Cl)cc2Cl)N(NC(=O)c2ccncc2)C1=O (stereo not given in full)", "label 0"],
  ["Nc1nc(Cl)c(N)c(NCC2(CO)CCC2)n1", "label 0"],
  ["COc1cc2c(c(O)c1OC)C(=O)[C@@H]1CCC(=O)N1C2c1ccccc1 (stereo not given in full)", "label 0"],
  ["Nc1ncnc2c1cnn2Cc1cn(COCC(O)CO)nn1 (stereo not given)", "label 0"],
  ["COC(=O)CC1C[C@H](C#N)N(C(=O)c2ccccc2)C[C@@H]1CC[N+](=O)[O-] (stereo not given in full)", "label 0"],
  ["O=[N+]([O-])c1nc(-c2ccccn2)[nH]c1[N+](=O)[O-]", "label 0"],
  ["C1CCNCC1.CN(C)c1ccc(/C=C2/NC(=S)NC2=O)cc1", "label 0"],
  ["COc1cc([C@H]2Oc3cc(O)c4c(=O)cc(-c5ccccc5)oc4c3O[C@@H]2CO)ccc1O", "label 0"],
  ["COc1ccc(/N=N/c2ccc3oc(=O)c(C(=O)Nc4ccccc4C)cc3c2)cc1", "label 0"],
  ["c1ccc(/C(=N/Nc2ccccn2)c2ncccn2)cc1", "label 1"],
  ["CCOC(=O)c1cn(C)c(=S)n2c1nc1ccccc12", "label 0"],
  ["CC(=O)NC(C=O)C(O[C@H](C)C(=O)NC(C)C(=O)NC(CCC(N)=O)C(=O)OCc1ccccc1)C(O)C(O)COC(=O)CCNc1c2ccccc2nc2cccc([N+](=O)[O-])c12 (stereo not given in full)", "label 0"],
  ["O=C(CCO)OCCCCCC/C=C\\CCCCCC/C=C\\CCCCCCCCOC(=O)CCO", "label 0"],
  ["O=[N+]([O-])c1ccc(CSc2c3ccccc3nc3ccccc23)cc1", "label 0"],
  ["CC1(C)CCOC(Sc2ccccc2)C1 (stereo not given)", "label 0"],
  ["COc1ccc(C2c3cc(OC)c(OC)cc3C(Cc3ccc([N+](=O)[O-])cc3)C2c2ccc([N+](=O)[O-])cc2)cc1OC (stereo not given)", "label 0"],
  ["NC(=O)c1ccc(Cl)c([N+](=O)[O-])c1", "label 0"],
  ["CCOC(=O)C12OC(OCC)(CC1(OCC)OCC)C1(CC1)C2=O (stereo not given)", "label 0"],
  ["CN(C)CCNC(=O)Cn1ccc(=O)c2cc([N+](=O)[O-])ccc21", "label 0"],
  ["C[C@@H](NC(=O)Nc1cccc(C(=O)Nc2cc(C(C)(C)C)ccc2C(=O)O)n1)c1ccccc1", "label 0"],
  ["CCOC(=O)c1nnsc1NC(=O)Nc1ccc(Cl)cc1", "label 0"],
  ["c1ccc(C[P+]2(c3ccccc3)c3ccccc3-c3ccccc32)cc1", "label 0"],
  ["CNC1=C(C)C(=O)C(O)=C([C@H](C)CCC=C(C)C)C1=O", "label 0"],
  ["NC(CCC(=O)NC(CSSCCCCS(=O)O)C(=O)NCC(=O)O)C(=O)O (stereo not given)", "label 0"],
  ["CC1=NN(c2nc(N)nc(/C(C#N)=C/c3ccncc3)n2)C(C)(C)C1", "label 0"],
  ["COc1ccc2ccccc2c1C1=NC(C)(C)CO1", "label 0"],
  ["CCOC(=O)CCC(NC(=O)c1ccc(/N=C/c2nc3cc(C(F)(F)F)ccc3nc2-c2ccccc2)cc1)C(=O)OCC (stereo not given)", "label 0"],
  ["CC1=NN(C(=O)c2ccc(Cl)cc2)C(=O)/C1=C/c1ccccc1O", "label 0"],
  ["Cc1ccc(S(=O)(=O)NC2=NS(=O)(=O)c3cc(C)c(Cl)cc3S2)cc1", "label 0"],
  ["O=C(O)C1(Cc2ccccc2)Cc2ccccc2C1", "label 0"],
  ["COc1ccc(/C=C2\\CCS(=O)(=O)c3ccccc3C2=O)cc1", "label 0"],
  ["CCOC(=O)c1ccc(N2C(=O)Cc3ccccc3C2=O)cc1", "label 0"]
]}

----------
Test system: SK-MEL-2
Assay: NCI tumour cell line growth inhibition, 48 h
Active and inactive are the calls of the source. No stated cut-off is given here; in the data, active = GI50 up to about 1.1 µM and inactive = higher.

{"columns": ["COMPOUND", "GI50"],
 "data": [
  ["COc1ccc(O[C@H](CO)C[C@@H]2COC(C)(C)O2)cc1", "> 100 µM (inactive)"],
  ["Cc1cc(Cl)cc2c1NC(=O)C2(O)CC(=O)c1ccco1 (stereo not given)", "> 85.9 µM (inactive)"],
  ["Cc1ccc(-c2nc3ccccc3c(=O)n2NC2OC(CO)C(O)C(O)C2O)cc1 (stereo not given)", "> 100 µM (inactive)"],
  ["S=C(Nc1ccc(Cl)cc1)SC1CCCCC1", "17.6 µM (inactive)"],
  ["COC(=O)c1cn(CCCC(=O)O)nn1", "> 100 µM (inactive)"],
  ["CCOC(=O)c1c(CN2CCCC2)n(-c2ccccc2)c2cc(Br)c(O)cc12", "18.3 µM (inactive)"],
  ["O=C1SC(SCc2ccccc2)=NC12CC2c1ccccc1 (stereo not given)", "18.7 µM (inactive)"],
  ["CC(=O)OCC1OC(N2C(=O)[C@@H](Oc3ccccc3)[C@H]2/C=C/c2ccccc2)C(OC(C)=O)C(OC(C)=O)C1OC(C)=O (stereo not given in full)", "> 100 µM (inactive)"],
  ["CC1=NN(c2nc(N)nc(/C(C#N)=C/c3ccncc3)n2)C(C)(C)C1", "> 100 µM (inactive)"],
  ["COC(=O)c1ccc(OCc2ccc3nc(-c4ccccc4)c(Cl)nc3c2)cc1", "84.7 µM (inactive)"],
  ["Nc1nc(O)nc2sc3c(c12)CCCC3", "> 100 µM (inactive)"],
  ["COC(=O)c1c(C)nc(C)c(N=O)c1-c1ccccc1C(F)(F)F", "36.1 µM (inactive)"],
  ["CN(C)CCNC(=O)Cn1ccc(=O)c2cc([N+](=O)[O-])ccc21", "> 100 µM (inactive)"],
  ["C=C1[C@@H](OC(C)=O)/C=C/C2C3C(=O)[C@@](C)(OC(C)=O)[C@H]([C@H](OC(C)=O)[C@]4(O)[C@@H](C)C(=O)O[C@H]4[C@H]1Cl)[C@@]23C (stereo not given in full)", "> 100 µM (inactive)"],
  ["CCCC1C(=O)Nc2cccc3ncn(c23)C1=O (stereo not given)", "> 100 µM (inactive)"]
]}
